# Tested on: SMN2 mRNA
# test.protocol: RT-qPCR splicing assay panel, SMN2 canonical junction (CJ) mRNA
# Assay type: cell-based, human
# reported.conditions: Homo sapiens, canonical junction (CJ) mRNA, RT-qPCR panel, Table 4A; read-out: SMN2, decrease in CJ mRNA levels, IC50
assay.metric: IC50

COCCc1cc(-c2ccc(-c3ccc(N4CCC(NC5CCC5)C4)nn3)c(O)c2)cnn1 (stereo not shown)
> 10000 nM
COc1nc(-c2cnc(N3CCC(NC(C)(C)C)C3)nn2)ccc1-c1cnc(C)s1 (stereo not shown)
< 100 nM

Record request: IC50 value, item Oc1cc(-c2ccnnc2)ccc1-c1ccc(N2CCC(NC3CCC3)C2)nn1 (stereo not shown) 100 to 1000 nM

What do you have for Cc1ncc(-c2ccc(-c3ccc(N4CCC(NC5CCC5)C4)nn3)c(O)c2)o1 (stereo not shown) ? < 100 nM

What do you have for "CCOc1cc(-c2ccc(-c3ccc(N4CC[C@@H](NC5CCC5)C4)nn3)c(O)c2)cnn1" ? 1000 to 10000 nM

What do you have for "COc1cc(-c2ccc(-c3ccc(N4CC[C@](C)(NC5CCC5)C4)nn3)c(O)c2)ncn1" ? < 100 nM

What do you have for NCCNC1CCN(c2ccc(-c3ccc(-c4cn[nH]c4)cc3O)nn2)C1 (stereo not shown) ? 100 to 1000 nM

Every entry's value here was drawn from patent US20250333397A1.
